As shown below, each of these compounds has a reported Population Pyknosed Nuclei (%) value.
- System: Fibroblast
- Method Notes: Multiplex assay against human fibroblast
- Type: toxicity, cell-based
- Cond: 12 h, 1 µM, compound concentration 1 uM, replicate 2
Measure Name: Population Pyknosed Nuclei (%)

Smiles String | Target System | Measure Name | Readout Value
C=CC(=O)Nc1cc(-n2c(=O)ccc3cnc4ccc(-c5ccc(NS(C)(=O)=O)cc5)cc4c32)ccc1C | Fibroblast | Population Pyknosed Nuclei (%) | 12%
CCCCN(CC)c1nc(C)nc2c1c(C)cn2-c1c(C)cc(C)cc1C.Cl | Fibroblast | Population Pyknosed Nuclei (%) | 9%
N#Cc1cccc(C(=O)Nc2cc(-c3ccccc3)nn2-c2ccccc2)c1 | Fibroblast | Population Pyknosed Nuclei (%) | 10%
CN(c1cc(C(F)(F)F)nc(OCCC(=O)O)n1)c1cccc2c1CCC2 | Fibroblast | Population Pyknosed Nuclei (%) | 9%
Cc1ccc(S(=O)(=O)NC2c3ccccc3Oc3ccccc32)cc1 | Fibroblast | Population Pyknosed Nuclei (%) | 12%

====

- Tested on: Fibroblast
- Method Notes: Multiplex assay against human fibroblast
- Assay type: toxicity, cell-based
- Cond: 12 h, 10 µM, compound concentration 10 uM, replicate 2

Compound | Unit Tag | Population Mitotic Cells (%)
Cc1ccc(S(=O)(=O)NC2c3ccccc3Oc3ccccc32)cc1 | % | 4
Oc1cccc(-c2nc(N3CCOCC3)c3oc4ncccc4c3n2)c1 | % | 63
NC(=O)c1ccc2nc(-c3ccc(C4(N)CCC4)cc3)c(-c3ccccc3)n2n1 | % | 80
Cc1c(P(=S)(c2ccccc2)c2ccccc2)n2ccccc2[n+]1C/C=C/c1ccccc1.[Br-] | % | 5
CC[C@@]1(O)C(=O)OCc2c1cc1n(c2=O)Cc2cc3ccccc3nc2-1 | % | 50
Cl.NC[C@@H]1O[C@H](C23CC4CC(CC(C4)C2)C3)Cc2c1ccc(O)c2O | % | 47
Cl.Cn1c2c(c3ccc(Cl)c(Cl)c31)C(C#N)C1(CCNCC1)NC2=O (stereo not drawn) | % | 60
CC[C@@H]1C(=O)N(C)c2cnc(Nc3ccc(C(=O)NC4CCN(C)CC4)cc3OC)nc2N1C1CCCC1 | % | 20
CN1C(=O)[C@@H](NC(=O)c2cc3ccccc3[nH]2)N=C(c2ccccc2)c2ccccc21 [DEVAZEPIDE] | % | 66
CC[C@H](Nc1ncnc2[nH]cnc12)c1nc2cccc(F)c2c(=O)n1-c1ccccc1 | % | 50
CC(/C=C1\SC(=S)N(CCCC(=O)Nc2ccc(C(=O)O)c(O)c2)C1=O)=C\c1ccccc1 | % | 55
c1ccc(-c2oc3ncnc(NC[C@@H]4CCCO4)c3c2-c2ccccc2)cc1 | % | 12
CC(C)c1cc(Nc2nc(N3CCC[C@H](N)C3)ncc2C(N)=O)cc(C(C)C)n1 | % | 34
C[C@@H](Oc1cc(-n2cnc3ccc(CN4CCN(C)CC4)cc32)sc1C(N)=O)c1ccccc1C(F)(F)F | % | 59
N#CCNC(=O)c1ccc(-c2ccnc(Nc3ccc(N4CCOCC4)cc3)n2)cc1 | % | 86
CC(C)[C@H](CO)Nc1nc(Nc2cccc(Cl)c2)c2ncn(C(C)C)c2n1 | % | 16
CCOC(=O)CCNc1cc(N2CCc3ccccc3CC2)nc(-c2ccccn2)n1 | % | 33
Cc1c(Nc2ccc(S(=O)(=O)N3CCN(C)CC3)cc2F)nc2ccc(Nc3cnn(C4CC4)c3)cn2c1=O | % | 50
